biological target: HLA-DQ2.5 (human); assay: competition with radiolabeled probe peptide, purified MHC class II
endpoint: log10 IC50 (log10 of the value in µM)
Each number you see is log10 of IC50, and the unit inside the log is µM.

• QQPAFSRQHQPSLPQ [… (SEQ ID NO: 73)] = 1.48
• QQPPFWQHQPPFSQQ [… (SEQ ID NO: 76)] = 1.57
• QPPFSEQQESPFSQQ [… (SEQ ID NO: 69)] = -0.80
• QQPPFSEQEQPSSQQ [… (SEQ ID NO: 77)] = 1.51

--- query ---
Need log10 IC50 of QQSPFPEQEQQHQQL [… (SEQ ID NO: 183)] , thanks.
1.51
